This collection of values is drawn from patent US20160362487A1.

Study target: T1, human IL-33 (R&D Systems, #3625-IL-010/CF) (human, UniProt O95760 112-270)
T1 construct: Commercial recombinant protein; also called hIL-33; interleukin-33
T1 sequence (looked up): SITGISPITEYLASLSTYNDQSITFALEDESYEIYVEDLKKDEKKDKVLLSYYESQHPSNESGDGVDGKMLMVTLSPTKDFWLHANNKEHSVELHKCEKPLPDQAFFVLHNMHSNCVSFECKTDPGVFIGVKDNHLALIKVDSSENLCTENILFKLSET
Procedure details: SPR 25C pH7.4, mAb captured
# kon annotations
Write it as a number; the unit M⁻¹ s⁻¹ goes unstated.

- H4H9666P (antibody, human IgG4, V domains shown, Human IgG4 Fc (H4H)) VH: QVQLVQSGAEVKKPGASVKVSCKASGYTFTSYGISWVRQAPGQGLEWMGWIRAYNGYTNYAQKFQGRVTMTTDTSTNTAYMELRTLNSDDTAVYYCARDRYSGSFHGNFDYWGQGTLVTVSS VL: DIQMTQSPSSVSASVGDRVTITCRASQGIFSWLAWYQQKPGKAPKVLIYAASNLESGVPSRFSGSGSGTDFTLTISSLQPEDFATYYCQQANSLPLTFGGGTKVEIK: 508000
- H1M9568N (antibody, mouse IgG1, V domains shown, Human variable domains, mouse IgG1 Fc (H1M)) VH: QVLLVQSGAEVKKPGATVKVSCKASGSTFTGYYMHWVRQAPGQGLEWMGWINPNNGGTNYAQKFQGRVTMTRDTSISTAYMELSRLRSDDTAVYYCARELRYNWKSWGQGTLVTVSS VL: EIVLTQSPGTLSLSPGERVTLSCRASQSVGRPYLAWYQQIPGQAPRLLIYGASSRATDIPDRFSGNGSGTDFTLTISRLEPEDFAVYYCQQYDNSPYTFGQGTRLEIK: 702000
- H4H9664P (antibody, human IgG4, V domains shown, Human IgG4 Fc (H4H)) VH: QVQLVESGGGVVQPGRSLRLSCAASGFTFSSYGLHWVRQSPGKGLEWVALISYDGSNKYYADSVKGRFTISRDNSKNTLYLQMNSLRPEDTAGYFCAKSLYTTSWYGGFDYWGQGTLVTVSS VL: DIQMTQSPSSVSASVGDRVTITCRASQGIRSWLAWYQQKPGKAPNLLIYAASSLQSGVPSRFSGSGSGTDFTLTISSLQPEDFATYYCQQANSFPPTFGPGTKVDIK: 339000

Challenge: Any idea what kon was measured for H4H9671P (antibody, human IgG4, V domains shown, Human IgG4 Fc (H4H)) VH: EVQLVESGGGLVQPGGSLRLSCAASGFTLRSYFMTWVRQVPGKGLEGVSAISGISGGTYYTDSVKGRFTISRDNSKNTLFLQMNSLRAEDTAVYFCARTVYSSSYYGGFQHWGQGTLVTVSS VL: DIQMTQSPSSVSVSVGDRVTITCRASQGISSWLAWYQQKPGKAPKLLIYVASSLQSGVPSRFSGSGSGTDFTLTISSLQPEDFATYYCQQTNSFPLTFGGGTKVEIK ?
Response given: 771000
